Source listed as the nanobody polyreactivity screen of Harvey et al. (2022).

experiment: yeast display, Sf9 membrane polyspecificity reagent, FACS + sequencing; frameworks hold sequencing errors
measureName: polyreactivity (PSR sort gate)

Reference set, count: 6
QVQLVESGGGLVQAGGSLRLSCAASGFIFRSNAMGLYRQAPGKEREFVAAISSRGGSTTYEDSVKGRFTISRDNAKNTVYLQMNSLKPEDTAVYYCARDWYYYPQYRQRYYYWGQGTQVTVSS; high polyreactivity
QVQLVESGGGLVQAGGSLRLSFAASGSIFYRNSMGWYRQAPGKERELVAAISWSGASTYYADSVKGRFTISRDNAKNTVYLQMNSLKPEETAVYYCYAGKYAYLWLKLFDPKLDYWGQGTQVTVSS; low polyreactivity
QVQLVESGGGLVQGGGSLRLSCAASGITFGDYAMGWYRQAPGKERELVAGINWSGDGTYYADSVKGRFTISRDNAQNTDYLQLNSLKPEDTAVYNCAAETFYDYGGYDYWGQGTQVTVSS; low polyreactivity
QVQLVESGGGLVQAGGSLRLSCAASGSTVGSNAMGWYRQAPGKERELVAAISSDGSTNYADSVKGRFTISRDNAKNTVSLQMNSLKPEETAVYYCKAVVQDADWGYDYWGQGTQVTLSS; low polyreactivity
QVQLVESGGGLVQAGGSLRLSCAATGSTFFIYAMGWYRQAPGKERELVAAISGSGGTTYYADSVKGRFTISRDNAKNTVYLHMNSLKPEDTAVYYGAARTFSAFWRGGYDYWGQGTQVTVSS; low polyreactivity
QVQLVESGGGLVQAGGSLRLTCAASGRIFYYYAMAWYRQAPGKEMELVAAIRRGGFTYYADSVKGRFTISRDNAKNTVYLQMYSLKQEDTAVYYCAAGVSKPNGYYYLRGYERGYWGQGTQVTVSS; high polyreactivity

Request: Could you share which polyreactivity (PSR sort gate) value was measured for QVQLVESGGGLVQAGGSLRLSCAASGRTFYYNAMGWYRQAPGKERELVAAITSAGSTNYADSVKGRFTISRDNAKNTVYLQMNSLKPEDTAVYYCAARYFYRSAWGTFVKNDSWGQGTQVTVSS ?
Result: high polyreactivity

Request: Could you share which polyreactivity (PSR sort gate) value was measured for QVQLVESGGGLVHAGGSLRLSCAASGFIFDTYLMGRYRQAPGTERELVAAISRTGGRTYYADSVKGRFTISRDNAKYTVYLQMNSLNPEDTAVYYCNRAPHIAPEDYDYWGQGTQVTVSS ?
Result: high polyreactivity

###

experiment: yeast display, Sf9 membrane polyspecificity reagent, FACS + sequencing; frameworks hold sequencing errors
measureName: polyreactivity (PSR sort gate)

QVQLVESGGGLVQAGGSLRLSCAASGFTLVLNAMGWYRQAPGKEREVVAAIRRSAGSTYYADSVKGRFTISRDNAKNTVYLQMNSLKPEDTAVYYCAAGFLWAKYAYGHWGQGTQVTVSS; low polyreactivity
QVQLVESGGGLVQAGGSLRLSCAAYGRTFSWNAMGWYRQAPGKERELVAGITGRGRSTYYADSVKGRFTISRDNAKNTVYLQMIRLKPEDTAVYYCAARNWQALYYGYGYDYWGHGTQVTVSS; high polyreactivity
QVQLVESVGGLVQAGGSLRLSCAASGSTFYFNDMGWYRQAPGKERELVAAISRGGSTYYADSVKGRFTISRDTAKNTVYLQMNSLKPEDTAVYYCANGSYVRNYGYWGQGTQVTVSS; high polyreactivity
QVQLVESGGGLVQAGGSLRLSCAASGRIFVRNAMGWYRQAPGKERELVAGISKRGSRTYYADSVKGRFTISRDNPKNTVYLQMNSLKPEDTAVYYCAVRSYIASYRDARIRFYYWGQGTQVTVSS; high polyreactivity
QVQLVESGGGLVQAGGSLRLSCAASGSTIGDNAMGWYSQAPGKERELVASISWSGASTYYADSVKGRFTISRDNAKNTVYLQMNSLKPEDTAVYYCAVYYSYYSHLYHLLFYYWGQGTQVTVSS; low polyreactivity

Request: Could you share which polyreactivity (PSR sort gate) value was measured for QVQLVESGGGLVQAGGSLRLSCAASGSTFLSNAMGWYRPAPGKERELVAAITTSGTSTFDADSVKGRFTISRDNAKTTVYLQMNSLKPEDTAVYCAKDYLPYLHFVAPSTGDYDYWGQGTQVTVSS ?
Result: low polyreactivity

Request: Could you share which polyreactivity (PSR sort gate) value was measured for QVQLVESGGGLVQAGGSLRLSCAASGSIFDVYTMGWYRQAPGKERELVAAINTGGGSTYYADSVKGRFTISRDNAKNTVYLQMNSLKPEDTAVYFCAASVYHYGPLYYWGQGTQVTVSS ?
Result: low polyreactivity

Request: Could you share which polyreactivity (PSR sort gate) value was measured for QVHLVESGGGLVQAGASLRLSCAASGSIFVGYAMGWYRQAPGKERELVASISSGDDTYADSVKGRFTISRDNAKNTVYLQMNSLKPEDTAVYYCAKDYISVDWAYDYWGQGTQVTVSS ?
Result: low polyreactivity

Request: Could you share which polyreactivity (PSR sort gate) value was measured for QVQLVESGGGLVQAGGSLRLSCAASGSTFVIYDMGWYRQAPGKERELVAAISYSGGSTYYADSVKGRFTISRDNAKNTVYLQMNSLKPEDTAVYYCAAEGRSDWGGDDYYWGQGTQVTVSS ?
Result: low polyreactivity

Request: Could you share which polyreactivity (PSR sort gate) value was measured for QVQLVESGGGLVQAGGSLRLSCAASGRIFSQNAMGWYRQAPGKERELVAAISGGSTNYADSVKGRFTISRDNAKNTVFLQMNSLKPEDTAVYYCAADAPFKMDYWGQGTQVTVSS ?
Result: low polyreactivity

Request: Could you share which polyreactivity (PSR sort gate) value was measured for QVQLVESGGGLVQAGGSLRLSCAPSGFIFAKYTMGWSRHAPGKERELVAAISANGGNTYYADSVKGRFTITRDNAKNTVYLQMNSLNPEDTAVYYCAALYKYSSYFDYWGQGTLVTVSS ?
Result: high polyreactivity

###

assay: yeast display, Sf9 membrane polyspecificity reagent, FACS + sequencing; frameworks hold sequencing errors
measureName: polyreactivity (PSR sort gate)

QVQLVESGGGLVQAGGSLRLSCAASGFIFTKYTMGWYRQAPGKERELVAAITGRGTSTYADSVKGRFTISRDNAKNTVYLPMNSLIPEDTAVYYCAAVGWFAVFLFSDINGYYLGQGTQVTVSS; low polyreactivity
QVQLVESGVGLVQAGGSLRLSCAASGSIFPHYAMGWYRQAPGKERELVAAISSGTSTNYADSVKGRFTISRDNAKNTVYLQMNSLKPEDTAVYFCAADYYSGYDSVDGDYNYWGQGTQVTVSS; low polyreactivity

###

experiment: yeast display, Sf9 membrane polyspecificity reagent, FACS + sequencing; frameworks hold sequencing errors
measureName: polyreactivity (PSR sort gate)

Reference set, count: 4
QVQLVESGGGLVQAGGSLRLSCAASGRIFYSNAMGWYRQAPGKERELVAVIRRTGSTYYAASVKGRFTISRDNAKNTVYLQMISQIPEDTAVYYCATSIPYGRGGNRYVYWGQGTQVTVSS; high polyreactivity
HVQLVESGGGLVQAGGSLRLSCAASGFIFQSYAMGWYRQAPGKERELVASISASGGSTYYADSVKGRFTISRDNAKNTVYLQMNSLKPEDTAVYYCAAGYWSYWSLRMDYWGQGTQVTVSS; high polyreactivity
QVQLVESGGGLVQAGGSLRLSCAASGSTFGYYAMGWYRQAPGKERELVAGISSGGTTKYADSVKGRFTISRDNAKNTVYLQMNSLTPVDTAVYYCAARFRRTRVTYYYWGQGTQVTVSS; high polyreactivity
QVQLVESGGGLVQAGGSLRLSCAASGSIFELYAMGWYRQAPGKDRELVASITWSSSNTHYADSVKGRFTISRDNAKNTVYLQMNSMKPEDTAVYYCAKDVLYGQFDGDSWGQGNQVTVSS; low polyreactivity

// switching to the query sequence
Request: Could you share which polyreactivity (PSR sort gate) value was measured for QVQLVESGGGLVQAGGSLRLSCAASGITFQANAMGWYRQAPGKERELVAAISSSDGSTYYADSVKGRFTISRDNAKNTVYVQMNSLKPEDTAVYYCAADGVVYGWPEYEYWGQGTQVTVSS ?
Result: low polyreactivity

###

test: yeast display, Sf9 membrane polyspecificity reagent, FACS + sequencing; frameworks hold sequencing errors
measureName: polyreactivity (PSR sort gate)

QVQLVESGGGLVQAGGSLRLSCAASGRTFFHYAMGWSRQAPGKERELVAGISSGGRTKYADSVKGRFTISRDNAKNTVYLQMNSLKPEDTAVYYCAASYIVWLTRGAPRKRFDYWGQGTQVTVSS; high polyreactivity
QVQLVESGGGLVQAGGSLRLSCAASGRTLIAYAMGWYRQAPGKEREFVAAIRADDGRTYYADSVKGRFTISRDNAKNTVYLQMNSLKPEDTAVYYCATKADKRYGFGYWGQGTQVTVSS; high polyreactivity
QVQLVESGGGLVQAGGSLRLSCASSGLILFYNAMGWYRQAPGKERELVATIRRGGTTYYADSVKGRFTISRDNAKNTVYLQMNSLKPEDTAVYYCAKESLYQYDYWGQGTQVTVSS; low polyreactivity
QVQLVESGGGLVQAGGILRLSWAASGFTFDSNAMGWYRQAPGKERELVASISSSGSTNYADCVKGRFTISRDNAKNTVDFQMNSLKPEDTAVYSCAAESRYPFIYEYWGQGTEVTVSS; low polyreactivity

Request: Could you share which polyreactivity (PSR sort gate) value was measured for QVQLVESGGGLVQAGGSLRVSCAASGSTFRRNNMGWYRQAPGKERELVAGISSSGGSTYYADSVKGRFTISRDNAKNTVYLQMNSLKPEDTAVYYCDARFYVSYVGYNYWGQGTQVTVSS ?
Result: high polyreactivity

Request: Could you share which polyreactivity (PSR sort gate) value was measured for QVQLVESGGGLVQAGGSLRLSCAASGIIFDTNDIGWYRLGPGKERELVATITQRGGTTYYADSVKGRFTISRDNATNTVYLQMNSLKPEDTAVYYCDADRRSKYDYWGQGTQVSVSS ?
Result: low polyreactivity

Request: Could you share which polyreactivity (PSR sort gate) value was measured for QVQLVESGGGLVQAGGSLRLSCAASGRILNYNAMGWYRQAPGKERELVAAITSSGGSTYYADSVKGRFTISRDNAKNTVYLQMNSLKPEDTAVYYCNALITYSSDYWGQGTQVTVSS ?
Result: low polyreactivity

Request: Could you share which polyreactivity (PSR sort gate) value was measured for QVQLVESGGGLVQAGGSLRLSCAASGFTINGNAMGWYRQAPGKERELVAAITWRGGSTYYADSVKGRFTISRDNAKNTVYLQMNSLKPEDTAVYYCNVEGWYDYDYWGQGTQVTVSS ?
Result: high polyreactivity
